Assay: yeast display, Sf9 membrane polyspecificity reagent, FACS + sequencing; frameworks hold sequencing errors
QUANTITY: polyreactivity (PSR sort gate)

INSERT INTO assay_data (residues, readout_value) VALUES
  ('QVQLVESGGGLVQEGGSLRLICAASGFTFGAHGMGWYRQAPGKERELVAANNSRGSRTYYADSGKGRFTISRDNPKNTVFFQMNSLQPDDTAVYYCAADYYAFKFGRFDYWGHGTQVTVSS', 'high polyreactivity'),
  ('QVQLVESGGGLVQAGGSLRLSCAASGRIFSYNAMGWYRQAPGKERELVAAISSDGSTYYADSVKGRFTISRDNAKNTVYLQMNSLKPEDTAVYYCNADPGLYDVLYSSGDFDYWGQGTQVTVSS', 'low polyreactivity'),
  ('QVQLVESCGGLVQAGGSLRLSCAASGSTFGYYAMGWYRQAPGKETELVAAISSRGGSTYYADSVKGRFTISRDNAKNTVYLQMNSLKPEDTADYYCAARGLFFRNRYGYWGQGTQVTVSS', 'high polyreactivity'),
  ('QVQLVESAGGLVQAGASLRLSCAASGSIFGGYAMGWYRQAPGTERELVAAISSGDSTYYADSVKGRFTISRDNAKNTVYLQMNSLKPEDTAVYYCARRYTRSYYKLGKLNYWGQGTQVTVSS', 'high polyreactivity'),
  ('QVQLVESGGGLVQAGGSLRLSCAASGSIFARNAMGWYRQAPGKERELVAAISWSGGRTYYADSVKGRFTISRDNAKNTVYLQMNSLKPEDTAVYYCATDTWWGQGTQVTVSS', 'high polyreactivity'),
  ('QVQLVESGGGLVQAGGSLRLSCAASGTLATYAMGWYRQAPGKERELVAAIRYSDGRTYYADSVKGRFTISRDNAKNTFYLQMNSLKPEDTAVYYCAASFRGRGKKLDYWGQGTQVTVSS', 'low polyreactivity'),
  ('QVHLVESGGGIVQAGGSLRLSCAASGSIFKYYPMGWYRQAAGKERELVAVISSGGRTYYADSVKGRFTISRDNAKNTVYLQMNSLKPEDTAVYYCAVYRTFRYRYDSWGQGTQVTVSS', 'high polyreactivity'),
  ('QVQLVESGGGLVQAGGSLRLSCAASGLNFRAYAMGWYRQAPGKERELVAAITWNGGSTNYADSVKGRFTISRDNAKNTVYLQMNSLKPEDTAVYYCNKYRISGLSKFYYWGQGTQVTVSS', 'high polyreactivity'),
  ('QDQLVESGGGLVQAGGSLRLSCAASGLIFVSYAMGWYRQAPGKERELVASITDSDSSTYYADSVKGRFTISRDNAKNTVYLQMNSLKPEDTAVYYCATGGRTEIWYPTLDYWGQGTQVTVSS', 'low polyreactivity'),
  ('QVQLVESGGGLVQAGGSLRLSCAASGGIFSYYVMGWYRQAPGKEREFVASITQRGRTYYADSVKGRFTISRDNAKNTVYLQINSLKPEDTAVYYCAAGIYAFRRHREEYDYWGQGTQVTVSS', 'high polyreactivity'),
  ('QVQLEESGGGLVQAGGSLRLSCAASGSILVRYAMGWYRQAPGKERELVAAITYSVGSTYYADSVKGRFTISRDNAKNTVYLQMNSLKPEDTAVYYCAASGGTEVLLMDYWGQGTQVTVSS', 'low polyreactivity');
